- targetSystem: UniProt P25103
- Sequence (P25103 whole entry): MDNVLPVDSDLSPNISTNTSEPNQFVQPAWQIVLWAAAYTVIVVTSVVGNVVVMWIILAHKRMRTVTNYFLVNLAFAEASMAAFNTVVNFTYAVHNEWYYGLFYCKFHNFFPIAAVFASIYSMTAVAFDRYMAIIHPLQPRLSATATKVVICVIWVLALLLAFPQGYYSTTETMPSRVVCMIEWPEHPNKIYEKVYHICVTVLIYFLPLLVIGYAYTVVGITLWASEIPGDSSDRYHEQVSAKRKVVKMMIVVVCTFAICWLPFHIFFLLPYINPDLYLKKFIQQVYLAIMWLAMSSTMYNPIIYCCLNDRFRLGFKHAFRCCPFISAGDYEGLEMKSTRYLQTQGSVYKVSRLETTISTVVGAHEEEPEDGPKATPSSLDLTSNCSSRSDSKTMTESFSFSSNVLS
- methodSummary: Binding affinity to human Tachykinin receptor 1
parameterMeasured: pIC50
API: returns pIC50 as number; meaning -log10 of concentration in mol/L.

compound="CC(N)(COCc1cc(C(F)(F)F)cc(C(F)(F)F)c1)c1ccccc1 (stereo not given)" targetsystem="UniProt P25103" parametermeasured=pIC50 measuredvalue=7.52

[Q] Given CC(OCc1cc(C(F)(F)F)cc(C(F)(F)F)c1)C(N)c1ccccc1 (single isomer, unassigned; diastereomer B) , state its recorded pIC50.
[A] 8.15

[Q] Given CC(OCc1cc(C(F)(F)F)cc(C(F)(F)F)c1)C(N)c1ccccc1 (single isomer, unassigned; diastereomer A) , state its recorded pIC50.
[A] 7.02

[Q] Given CC(OCC(N)c1ccccc1)c1cc(C(F)(F)F)cc(C(F)(F)F)c1 (stereo not given) , state its recorded pIC50.
[A] 8.37

[Q] Given `Cc1cc(Br)cc(COC[C@@H](N)c2ccccc2)c1` , state its recorded pIC50.
[A] 7.70
